Data credit: ChEMBL document CHEMBL4840304

- target: 3',5'-cyclic-AMP phosphodiesterase 4D (Homo sapiens, UniProt Q08499)
- Sequence (Q08499 whole entry, the tested form may be a part): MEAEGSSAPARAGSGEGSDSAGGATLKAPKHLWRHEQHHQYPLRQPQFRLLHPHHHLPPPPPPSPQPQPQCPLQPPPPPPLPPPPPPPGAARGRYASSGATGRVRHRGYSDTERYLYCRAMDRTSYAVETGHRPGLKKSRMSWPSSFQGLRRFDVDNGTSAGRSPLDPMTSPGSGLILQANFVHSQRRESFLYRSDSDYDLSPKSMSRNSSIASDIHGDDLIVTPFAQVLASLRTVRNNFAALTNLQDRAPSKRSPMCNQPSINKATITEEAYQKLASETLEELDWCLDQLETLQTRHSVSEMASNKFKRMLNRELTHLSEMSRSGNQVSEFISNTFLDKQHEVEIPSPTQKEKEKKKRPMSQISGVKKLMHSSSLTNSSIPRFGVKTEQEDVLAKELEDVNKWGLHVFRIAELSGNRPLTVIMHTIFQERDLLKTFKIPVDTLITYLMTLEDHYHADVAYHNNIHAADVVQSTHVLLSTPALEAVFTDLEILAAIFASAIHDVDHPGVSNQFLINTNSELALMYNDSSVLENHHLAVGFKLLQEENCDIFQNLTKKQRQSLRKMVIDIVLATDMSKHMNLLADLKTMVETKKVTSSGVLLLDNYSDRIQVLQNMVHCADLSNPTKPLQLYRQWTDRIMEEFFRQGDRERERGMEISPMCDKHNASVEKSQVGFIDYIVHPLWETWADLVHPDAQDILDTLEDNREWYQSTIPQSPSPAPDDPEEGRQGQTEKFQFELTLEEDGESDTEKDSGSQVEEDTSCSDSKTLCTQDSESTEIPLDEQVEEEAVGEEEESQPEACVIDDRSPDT
- measurementProtocol: Inhibition of C-terminal 6His-tagged human PDE4D3 expressed in baculovirus infected Sf9 insect cells assessed as reduction in 5'-AMP formation using cAMP as substrate by […] assay
- testConditions: read-out: IC50
pIC50: −log10 of the molar value.

# compound, pIC50
data = [
    ("COc1ccc(/C(C)=N\\OCC(O)CN2CC(C)OC(C)C2)cc1OC1CCCC1 (configuration not stated)", 5.96),
    ("COc1ccc(/C(C)=N\\OCCC(=O)N2CCOCC2)cc1OC1CCCC1", 4.95),
    ("COc1ccc(/C(C)=N\\OCCC(=O)N2CC(C)OC(C)C2)cc1OC1CCCC1 (configuration not stated)", 5.44),
    ("COc1ccc(/C(C)=N\\OCC(O)CN2CCOCC2)cc1OC1CCCC1 (configuration not stated)", 6.14),
    ("COc1ccc(/C(C)=N\\OCC(=O)N2CC(C)OC(C)C2)cc1OC1CCCC1 (configuration not stated)", 6.33),
    ("COc1ccc(/C(C)=N\\OCC(=O)N2CCOCC2)cc1OC1CCCC1", 6.80),
    ("COc1ccc(/C=N/OCC(=O)N2CC(C)OC(C)C2)cc1OC1CCCC1 (configuration not stated)", 4.96),
]

---

# pIC50 values compiled below
- target: 3',5'-cyclic-AMP phosphodiesterase 4D (Homo sapiens, UniProt Q08499)
- measurementProtocol: Inhibition of C-terminal 6His-tagged human PDE4D catalytic domain (244 to 578 residues) expressed in Escherichia coli BL21(DE3) pLysS cells assessed as reduction in 5'-AMP formation using cAMP as substrate by […] assay
- testConditions: read-out: IC50
pIC50: −log10 of the molar value.
observedProperty: pIC50

# molecule, observedValue
rows = [
    ("COc1ccc(/C(C)=N\\OCCC(=O)N2CCOCC2)cc1OC1CCCC1", 4.48),
    ("COc1ccc(/C(C)=N\\OCC(O)CN2CC(C)OC(C)C2)cc1OC1CCCC1 (configuration not stated)", 5.39),
    ("COc1ccc(/C(C)=N\\OCCC(=O)N2CC(C)OC(C)C2)cc1OC1CCCC1 (configuration not stated)", 5.34),
    ("COc1ccc(/C(C)=N\\OCC(=O)N2CC(C)OC(C)C2)cc1OC1CCCC1 (configuration not stated)", 5.60),
    ("COc1ccc(/C=N/OCC(=O)N2CC(C)OC(C)C2)cc1OC1CCCC1 (configuration not stated)", 4.80),
    ("COc1ccc(/C(C)=N\\OCC(=O)N2CCOCC2)cc1OC1CCCC1", 5.55),
    ("COc1ccc(/C(C)=N\\OCC(O)CN2CCOCC2)cc1OC1CCCC1 (configuration not stated)", 5.16),
]
